Cited source for all entries: patent US20210340238A1

# key: entry, value: G/D (fold bias)
ASSAYED SYSTEM: Matrix-associated proTGFβ1 (hLTBP1-proTGFβ1 and hLTBP3-proTGFβ1 complexes)
PROCEDURE SUMMARY: Octet (BLI); cell average KD over ECM average KD
Enter your answer as a number in fold; do not include the unit.

Ab11 (antibody, V domains shown) VH: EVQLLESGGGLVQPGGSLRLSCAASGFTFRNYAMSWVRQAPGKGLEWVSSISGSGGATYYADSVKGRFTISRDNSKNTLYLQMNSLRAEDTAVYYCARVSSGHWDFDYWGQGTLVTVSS VL: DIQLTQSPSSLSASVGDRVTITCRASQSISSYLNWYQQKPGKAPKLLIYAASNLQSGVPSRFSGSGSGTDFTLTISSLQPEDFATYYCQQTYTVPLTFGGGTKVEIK | 4.35

G/D (fold bias) for Ab19 (antibody, V domains shown) VH: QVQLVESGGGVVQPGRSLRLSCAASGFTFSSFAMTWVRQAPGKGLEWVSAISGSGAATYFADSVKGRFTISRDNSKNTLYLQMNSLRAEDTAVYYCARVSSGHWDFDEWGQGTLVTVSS VL: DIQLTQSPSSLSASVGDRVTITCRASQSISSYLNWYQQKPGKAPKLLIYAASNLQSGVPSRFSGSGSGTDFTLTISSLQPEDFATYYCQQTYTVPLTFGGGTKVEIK ?
34.5
